Test system: Plasmodium falciparum
assay.comment: Primary screen in NF54 nanoGlo assay, in single point, at 2uM, 72h
Format: functional, Erythrocyte
stated.conditions: timepoint 72 hour
Screen size: about 150,000 compounds; about 540 (0.36%) showed an effect of 50% or more. For the sample, strong results were picked, then their nearest neighbours and some compounds at random.
# binarize Z score: threshold 0.1 inclusive, high side MET, low side NOT MET

>  <compound>
Cc1ccc2c(c1)c1c(n2S(=O)(=O)c2ccc(C(C)(C)C)cc2)CCCN(C)C1

>  <category.label>
NOT MET

$$$$
>  <compound>
CC1CC(C(=O)N[C@@H](C)c2cnccn2)CC(C)(C)C1 (stereo partly drawn)

>  <category.label>
NOT MET

$$$$
>  <compound>
CC1CC(C(=O)NCCCn2cn[nH]c2=O)CC(C)(C)C1 (stereo not drawn)

>  <category.label>
NOT MET

$$$$
>  <compound>
Cc1cccc(C(=O)Nc2nc3cc4sc(NC(=O)c5cccc(C)c5)nc4cc3s2)c1

>  <category.label>
MET

$$$$
>  <compound>
Cc1ccc(C)c(NC(=O)c2c(Oc3ccc(F)cc3)nc(C)c(Cl)c2C)c1

>  <category.label>
MET

$$$$

Determine whether this compound has Z score no lower than 0.1: Cc1c([C@H](C)NCc2cncnc2)oc2ccccc12 MET

Quick check: does CC1CN(C(=O)Cc2csc(-c3cccnc3)n2)CC(C)O1 (stereo not drawn) have Z score greater than or equal to 0.1? MET

Check the entry COC[C@](C)(CCO)NC(=O)Nc1cc(F)cc(Br)c1 : does Z score equal or exceed 0.1? MET

Record CCCc1cnc(C)nc1-c1ccnc2c1ccn2C ; criterion: Z score no lower than 0.1. Met? MET

Evaluate CN(CC1(CO)CCCC1)C(=O)CN1CCCCC1 : Z score at minimum 0.1? MET

Reported Z score reaches at least 0.1 for CCN(C(=O)c1ccccc1Cc1ccc(C)cc1)C1CCOCC1 ? MET

# check: Z score of Cc1ccc2c(c1)c1c(n2CCc2ccncc2)CCCN(C)C1 is greater than or equal to 0.1 NOT MET

In plain terms: is recorded Z score at least 0.1 for Cn1cc(C(=O)N[C@H]2CCN(c3ccc(F)c(Cl)c3)C2)cn1 ? MET

###

System: Plasmodium falciparum
assay.comment: Primary screen in NF54 nanoGlo assay, in single point, at 2uM, 72h
Format: functional, Erythrocyte
stated.conditions: timepoint 72 hour
About 540 (0.36%) of roughly 150,000 compounds showed an effect of 50% or more. The entries come from a sample that favours strong results as a whole.
outcome.measure: % Inhibition (%)
One number for each entry, in %.

>  <compound>
CCC1=Nc2ccccc2N=C(NC(=O)CN2CCN(C)CC2)[C@H]1c1ccccc1

>  <meas.value>
-6

$$$$
>  <compound>
Cc1[nH]c2ncnc(NC(=O)c3cccc(-n4ccnn4)c3)c2c1C

>  <meas.value>
65

$$$$
>  <compound>
COc1ccc2[nH]c3c(c2c1)CC(C(=O)O)NC3c1ccc(OC)c(CN2CCN(c3ccccc3F)CC2)c1 (stereo not given)

>  <meas.value>
74

$$$$
>  <compound>
COc1cc(C2N[C@H](C(=O)O)Cc3c2[nH]c2ccccc32)ccc1OCc1ccccc1 (stereo not given in full)

>  <meas.value>
-3

$$$$
>  <compound>
Cc1cccc2c1OCC[C@H]2NC(=O)Cn1cnc2c1CCNC21CCOCC1

>  <meas.value>
-5

$$$$
>  <compound>
CC12CN(S(=O)(=O)c3ccc4c(c3)OCCO4)C3(C(=O)NCCc4ccccc4)CC1CCC23C (stereo not given)

>  <meas.value>
-11

$$$$
>  <compound>
O=c1c2ccoc2ccn1Cc1ccc(OC(F)F)cc1

>  <meas.value>
-8

$$$$
>  <compound>
O=C(Nc1cccc(Cl)c1)Nc1nnc2cccc(Cl)n12

>  <meas.value>
-18

$$$$

Please go through the list and note % Inhibition for each compound.
1. Cc1[nH]c2ncnc(NC(=O)c3cccc(S(=O)(=O)NC4CC4)c3)c2c1C
2. Cc1cc(NC(=O)c2cccc(-n3ccnn3)c2)nc(=O)[nH]1

1. -21
2. -14

###

Could you please report measured Z score for the items listed next?
Tested on: Plasmodium falciparum
assay.comment: Primary screen in NF54 nanoGlo assay, in single point, at 2uM, 72h
Type: functional, Erythrocyte
stated.conditions: timepoint 72 hour
In all, about 150,000 compounds went through this assay and about 540 (0.36%) showed an effect of 50% or more. Shown is part of a subset that was picked to be rich in strong results.
Numbers only.

Past entries and their recorded results:
>  <molecule>
CO[C@@H]1CCC[C@@H]2CN(C(=O)C3(c4ccccc4)CCCC3)C[C@@H]21

>  <outcome.measure>
Z score

>  <meas.value>
0.35

$$$$
>  <molecule>
CS(=O)(=O)N1CCN(S(=O)(=O)N2CCN(c3ccccc3Cl)CC2)CC1

>  <outcome.measure>
Z score

>  <meas.value>
-0.74

$$$$
>  <molecule>
Cc1ccc2[nH]c(-c3cc4n(n3)CCN(C(=O)N3CCN(C)CC3)C4)nc2c1

>  <outcome.measure>
Z score

>  <meas.value>
0.7

$$$$

Could I get Z score for every one of these entries?
1. CC(C)Cn1cccc(C(=O)Nc2cn(C)nc2-c2ccco2)c1=O
2. C[N+]12CCCC[C@@H]1[C@H](COC(=O)c1ccccc1Cl)CCC2 (stereo not given in full)

1.12
-0.65

###

Test system: Plasmodium falciparum
assay.comment: Primary screen in NF54 nanoGlo assay, in single point, at 2uM, 72h
Assay type: functional, Erythrocyte
stated.conditions: timepoint 72 hour
The whole screen tested about 150,000 compounds, of which about 540 (0.36%) showed an effect of 50% or more. Many of the other results were omitted from the sample, so strong results are more common in it than they were.
The label is Met for % Inhibition below 20% and Not met for % Inhibition equal to or exceeding 20%.

# example entries with known answers
>  <compound>
O=C(COc1ccccc1Cl)Nc1ccc(C2(c3ccc(NC(=O)COc4ccccc4Cl)cc3)c3ccccc3-c3ccccc32)cc1

>  <category.label>
Not met

$$$$
>  <compound>
Cc1ccc(CNC(=O)[C@]2(C)Cn3nc(C)cc3C(=O)N2c2ccc3c(c2)OCCO3)cc1

>  <category.label>
Met

$$$$
>  <compound>
CCc1ccc(-c2cc3n(n2)C[C@@](C)(C(=O)NC2CCCCC2)N(c2cccc(C)c2C)C3=O)cc1

>  <category.label>
Met

$$$$
>  <compound>
Nc1ccc(C2(c3ccc(N)cc3)c3ccccc3C(=O)c3ccccc32)cc1

>  <category.label>
Met

$$$$
>  <compound>
COc1ccc(-c2cc3n(n2)C[C@@](C)(C(=O)NCc2ccccc2OC)N(c2ccc(C)cc2)C3=O)cc1

>  <category.label>
Met

$$$$

hey, is % Inhibition for Cc1noc2ncnc(N3CCCC[C@H]3c3nccs3)c12 lower than 20% or not? Met

Identify whether the compound COc1ccc(-c2nc3ccc(C(=O)NC4CCCC(C)C4C)cc3nc2-c2ccc(OC)c(OC)c2)cc1OC (stereo not drawn) records % Inhibition below 20%. Not met

Strictly below 20%: is that where % Inhibition of O=C(Nc1ccc(C2(c3ccc(NC(=O)c4ccc(F)cc4)cc3)c3ccccc3C(=O)c3ccccc32)cc1)c1ccc(F)cc1 sits? Not met

###

System: Plasmodium falciparum
assay.comment: Primary screen in NF54 nanoGlo assay, in single point, at 2uM, 72h
Format: functional, Erythrocyte
stated.conditions: timepoint 72 hour
Among all 150,000 compounds or so, about 540 (0.36%) showed an effect of 50% or more. The sample as a whole holds a higher share of strong results than the screen did.
Task for the reader: assign each of the following compounds its reported % Inhibition.

>  <compound>
CC(C)(C)C1CCC(O)(CNC(=O)NC2CCC(O)CC2)CC1 (centres undefined)

>  <% Inhibition>
0%

$$$$
>  <compound>
Cc1cc(=O)n(CC(=O)N2CCCC[C@@H]2CCc2ccccc2)nc1C

>  <% Inhibition>
-18%

$$$$
>  <compound>
O=C1N[C@H]2C[C@@H](C(=O)NC[C@H]3O[C@H](CCOc4cc(-c5ccccc5)ccc41)CC[C@@H]3O)N(Cc1ccc(Cl)c(F)c1)C2

>  <% Inhibition>
37%

$$$$
>  <compound>
Oc1c2c(nc3ccccc13)CCCCC2

>  <% Inhibition>
25%

$$$$
>  <compound>
Cc1ccc(Nc2nc(N)nc(CN3CCCCCCC3)n2)cc1

>  <% Inhibition>
-5%

$$$$

Each of the following entries comes with a recorded value; kindly state % Inhibition for each.
1. O=C1N[C@H]2C[C@@H](C(=O)NC[C@H]3O[C@H](CCOc4cc(-c5ccccc5)ccc41)CC[C@@H]3O)N(Cc1ccc3c(c1)OCO3)C2
2. N#Cc1cccc(S(=O)(=O)N2CCCCCCC2)c1
3. O=C1N[C@H]2C[C@@H](C(=O)NC[C@H]3O[C@H](CCOc4ccccc41)CC[C@@H]3O)N(Cc1ccc3c(c1)OCO3)C2

51%
4%
26%

The value of % Inhibition measured for the compound CC(C)N(C)C(=O)C1CCN(C(=O)[C@@H](N)C(C)(C)C)CC1 turned out to be -1%

Data provenance: ChEMBL document CHEMBL4888484
